System: L1210 leukemia ip in BDF1 mice, survival T/C
Assay: NCI In Vivo Anticancer Drug Screen. Data for tumor model L1210 Leukemia (intraperitoneal) in B6D2F1 (BDF1) mice
Settings: endpoint: mean survival time; dose: 50.0 mg/kg/injection; schedule: Q04DX002 (ip); vehicle: Klucel (hydroxypropylcellulose) (HPC); higher = longer survival
Description: The antitumor activity of compounds was measured in mice bearing transplantable tumors. Survival or tumor size were measured and the results are expressed as the measurement made in the treated group (T) divided by the measurement made in the vehicle treated control group (C). The tumor model used in this assay is L1210 Leukemia (intraperitoneal) in B6D2F1 (BDF1) mice
Inconclusive results and toxic doses are left out.
observedProperty: T/C

O=CC(CCN1CCCCC1)(CCN1CCCCC1)c1cccc2ccccc12; 100 % of control
CC(C)=NOS(=O)(=O)c1c(C)cc(C)cc1C; 98 % of control
COC1OC(CBr)C(OC(=O)c2ccccc2)C(OC(=O)c2ccccc2)C1OS(=O)(=O)c1ccc(C)cc1 (stereo not given); 97 % of control
O=C1NC2C3C=CC(C3)C12 (stereo not given); 93 % of control

Consider the record given below.
Problem: Item under review: CC(=O)OC1CCC2(C)C(=CCC3C2CCC2(C)C3CC3C(c4ccccc4C)=NN(c4ccccc4)C32C#N)C1 (stereo not given) . Reported T/C?
Solution: 97 % of control

###

Tested on: L1210 leukemia ip in BDF1 mice, survival T/C
Test: NCI In Vivo Anticancer Drug Screen. Data for tumor model L1210 Leukemia (intraperitoneal) in B6D2F1 (BDF1) mice
Conditions: endpoint: mean survival time; dose: 400.0 mg/kg/injection; schedule: Q01DX009 (ip); vehicle: Klucel (hydroxypropylcellulose) (HPC); higher = longer survival
Inconclusive results and toxic doses are left out.
observedProperty: T/C

Answered cases to consult:
O=C(Oc1cc(OC(=O)c2ccccc2)cc(OC(=O)c2ccccc2)c1)c1ccccc1; 95 % of control
CNc1ccccc1C#N; 109 % of control
O=C(Oc1ccccc1)c1ccc(Cl)cc1; 98 % of control

Problem: Item under review: `O=[N+]([O-])c1ccc2c(c1)Cc1cc(Br)ccc1-2` . Reported T/C?
Solution: 98 % of control

Problem: Item under review: ClC1OC(Cl)(Cl)C(Cl)(Cl)OC1(Cl)Cl (stereo unspecified) . Reported T/C?
Solution: 101 % of control

Problem: Item under review: `O=C1c2ccccc2C(=O)N1N(c1ccccc1)c1ccccc1` . Reported T/C?
Solution: 103 % of control

###

Test system: L1210 leukemia ip in BDF1 mice, survival T/C
Assay: NCI In Vivo Anticancer Drug Screen. Data for tumor model L1210 Leukemia (intraperitoneal) in B6D2F1 (BDF1) mice
Settings: endpoint: mean survival time; dose: 100.0 mg/kg/injection; schedule: Q01DX009 (ip); vehicle: Klucel (hydroxypropylcellulose) (HPC); higher = longer survival
Inconclusive results and toxic doses are left out.
// reported T/C for each item listed

Answered cases to consult:
Cc1cc2cc(C)c3cccc(C)c3c2c2c(C)cccc12; 102 % of control
O=C(O)CCC(=O)c1ccc(Br)cc1; 95 % of control
O=S(=O)(/N=C1C=C/C(=N/S(=O)(=O)c2ccccc2)C2C3C=CC(C3)C/12)c1ccccc1 (stereo not given); 109 % of control
CC(=O)OCC(COC(C)=O)=C1N=C(c2ccccc2)OC1=O; 103 % of control
Cc1cccc(Cl)c1NC(=O)c1ccc(C(=O)Nc2c(C)cccc2Cl)cc1; 87 % of control
O=c1[nH]c2sccc2c(=O)n1OS(=O)(=O)c1ccccc1; 105 % of control

Problem: Item under review: `COc1ccc(OC(=O)Nc2ccccc2OC)cc1` . Reported T/C?
Solution: 97 % of control

Problem: Item under review: `COC(=O)CCC#CC#CCCC(=O)OC` . Reported T/C?
Solution: 97 % of control

Problem: Item under review: `C[C@]1(O)CC[C@H]2[C@@H]3CCC4=CC(=O)CC[C@]4(C)[C@@]3(F)C(=O)C[C@@]21C` . Reported T/C?
Solution: 101 % of control

Problem: Item under review: `CN(CCC#N)c1ccc(/C=C(\C#N)c2ccc(Br)cc2)cc1` . Reported T/C?
Solution: 94 % of control
